test system: Pseudomonas aeruginosa PAO1; test: Inhibition of Pseudomonas aeruginosa PAO1 GFP-fused quorum sensing rhlA at 10 uM measured every 15 mins up to 12 hrs by GFP reporter gene assay relative to control
MEASURED_ATTRIBUTE: inhibition (%)

Known results for molecules:
smiles_text=O=C(CCc1ccccc1)Nc1ccc(CC2=CC(=O)OC2=CBr)cc1 value_units=% number=15.2
smiles_text=O=C1C=C(Cc2ccc(NC(=O)c3ccco3)cc2)C(=C(Br)Br)O1 value_units=% number=23.6
smiles_text=O=C(C=Cc1ccccc1)Nc1ccc(CC2=CC(=O)O/C2=C/Br)cc1 value_units=% number=12
smiles_text=O=C1C=C(Cc2ccc(NC(=O)c3ccco3)cc2)C(=CBr)O1 value_units=% number=13.6

(I) O=C1C=C(Cc2ccc(NC(=O)c3cccs3)cc2)C(=CBr)O1
(II) COc1cc(CC(=O)Nc2ccc(CC3=CC(=O)OC3=CBr)cc2)cc(OC)c1OC
(III) Cc1ccc(CC(=O)Nc2ccc(CC3=CC(=O)OC3=C(Br)Br)cc2)cc1
List from greatest to least inhibition. Order the labels as requested and list them. I, III, II

Sourced from ChEMBL document CHEMBL4145447
